# assayed-target: Estrogen receptor (Homo sapiens) (UniProt P03372)
# Sequence (whole entry): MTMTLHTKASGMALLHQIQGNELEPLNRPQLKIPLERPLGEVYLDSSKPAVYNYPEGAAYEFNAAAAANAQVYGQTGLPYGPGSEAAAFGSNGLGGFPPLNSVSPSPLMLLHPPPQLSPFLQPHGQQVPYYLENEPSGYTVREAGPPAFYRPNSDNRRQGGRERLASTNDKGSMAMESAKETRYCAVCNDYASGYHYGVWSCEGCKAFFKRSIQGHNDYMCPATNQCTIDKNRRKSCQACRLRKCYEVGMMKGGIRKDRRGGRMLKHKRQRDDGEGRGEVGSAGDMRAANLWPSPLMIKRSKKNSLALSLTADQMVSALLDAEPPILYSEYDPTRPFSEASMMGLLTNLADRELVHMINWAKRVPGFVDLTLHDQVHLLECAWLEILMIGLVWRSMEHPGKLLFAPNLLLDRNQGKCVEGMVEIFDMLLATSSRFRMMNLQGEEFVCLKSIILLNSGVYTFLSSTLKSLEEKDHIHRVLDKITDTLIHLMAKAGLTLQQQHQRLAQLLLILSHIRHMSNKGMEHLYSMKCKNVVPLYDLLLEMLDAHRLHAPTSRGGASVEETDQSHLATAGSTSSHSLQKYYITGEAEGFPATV
# protocol: Agonist activity at ER-alpha (unknown origin) transfected in HEK293T cells assessed as stimulation of transcriptional activity after 24 hrs by luciferase reporter gene assay relative to 17-beta estradiol
# Format: cell-based
# condition-parameters: HEK-293T
experimental-readout: Efficacy (%)

Worked set:
molecule: Cc1ccc(OS(=O)(=O)C2CC3OC2C(c2ccc(NC(=O)CCCCCCC(=O)NO)cc2)=C3c2ccc(O)cc2)cc1 (racemic)
Efficacy [%]: -28
//
molecule: O=C(O)CCCCCCC(=O)Nc1ccc(C2=C(c3ccc(O)cc3)C3CC(S(=O)(=O)Oc4ccccc4C(F)(F)F)C2O3)cc1 (racemic)
Efficacy [%]: 9
//
molecule: O=C(O)CCCCCCC(=O)Nc1ccc(C2=C(c3ccc(O)cc3)C3CC(S(=O)(=O)Oc4ccc(C(F)(F)F)cc4)C2O3)cc1 (racemic)
Efficacy [%]: -51

I = Cc1ccc(OS(=O)(=O)C2CC3OC2C(c2ccc(NC(=O)CCCCCCC(=O)O)cc2)=C3c2ccc(O)cc2)cc1 (racemic)
II = COc1ccccc1OS(=O)(=O)C1CC2OC1C(c1ccc(NC(=O)CCCCCCC(=O)NO)cc1)=C2c1ccc(O)cc1 (racemic)
III = O=C(O)CCCCCCC(=O)Nc1ccc(C2=C(c3ccc(O)cc3)C3CC(S(=O)(=O)Oc4ccc(Br)cc4)C2O3)cc1 (racemic)
IV = O=C(CCCCCCC(=O)Nc1ccc(C2=C(c3ccc(O)cc3)C3CC(S(=O)(=O)Oc4ccc5ccccc5c4)C2O3)cc1)NO (configuration not stated)
List from greatest to least Efficacy. Answer by writing out the labels in the requested order. IV, II, I, III
